assay_procedure: BSK_CASM3C_SRB: Viability Assessment in the BioMAP Diversity Plus: CASM3C Assay (AID 2283050);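 note: total protein by SRB staining as cytotoxicity measure in parallel cultures; cells exposed to compound for 24 h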
applied_conditions: primary human coronary artery smooth muscle cells
Active and inactive are the calls of the source. Rule for the calls: active = hit-call score of the fitted dose curve at least 0.9, where 1 is the maximum; inactive = score below 0.9.
A correct response names exactly one class from y (active), n (inactive)

Use the examples below as a reference point.
- molecule: "COc1cc(S(=O)(=O)O)c(C)cc1N=Nc1c(O)ccc2cc(S(=O)(=O)O)ccc12"
  category: "n"
- molecule: "CC1(C)CC(N=C=O)CC(C)(CN=C=O)C1 (configuration not stated)"
  category: "n"
- molecule: "Cc1cccc([N+](=O)[O-])c1C"
  category: "n"

Okay, next one:
Asked: Hello, I am checking results. What call was entered for Cc1ccc2ncccc2c1 ?
Given back: n

====

system: Signal transducer and activator of transcription 3 (Homo sapiens)
assay_procedure: ATG_STAT3_CIS: Attagene CIS-FACTORIAL HepG2 Assay for human Signal Transducer and Activator of Transcription 3 (STAT3) (AID 2282963)
applied_conditions: HepG2, Attagene cis-factorial STAT3 reporter transcription; actives raise or lower the signal
The source made the active and inactive calls. How the source made its calls: active means hit-call score of the fitted dose curve at least 0.9, where 1 is the maximum; inactive means score below 0.9.
measurement_name: outcome

- compound: "CC1(C)CC(N=C=O)CC(C)(CN=C=O)C1 (configuration not stated)"
  outcome: "inactive"
- compound: "Cc1cccc(Nc2cc(Cl)nc(SCC(=O)O)n2)c1C"
  outcome: "inactive"
- compound: "COc1cc(-c2nc(NC(=O)c3cc4cc(C)cc(C)c4n3CC(=O)O)sc2CCC2CCCCC2)c(OC)cc1Cl"
  outcome: "inactive"
- compound: "NS(=O)(=O)c1cc2c(cc1Cl)NCNS2(=O)=O"
  outcome: "inactive"

Asked: Field request: outcome | item: COc1cc(S(=O)(=O)O)c(C)cc1N=Nc1c(O)ccc2cc(S(=O)(=O)O)ccc12
Given back: inactive

Asked: Same thing, different compound: COCCOC[C@H](CC1(C(=O)NC2CCC(C(=O)O)CC2)CCCC1)C(=O)Oc1ccc2c(c1)CCC2 (some centres not stated)
Given back: inactive

Asked: Same thing, different compound: CCCCCCC(=O)OCC
Given back: inactive

====

assay_procedure: APR_HepG2_MitoMass_24hr: Apredica 24-hour HepG2 Assay for Mitochondrial Mass (AID 2282912)
applied_conditions: high-content imaging, actives raise or lower the signal
Calls of active or inactive are those of the source. The calls were made as follows: active = hit-call score of the fitted dose curve at least 0.9, where 1 is the maximum; inactive = score below 0.9.
measurement_name: outcome

Would you please look over these solved cases?
- compound: "OC[C@@H](O)[C@@H](O)[C@H](O)[C@H](O)CO"
  outcome: "inactive"
- compound: "CCCCCCC(=O)OCC"
  outcome: "inactive"
- compound: "Cc1ccc(N(C)C)cc1"
  outcome: "inactive"
- compound: "Nc1ccccc1N"
  outcome: "inactive"

Asked: Field request: outcome | item: Cc1nc(-c2ccc3c(c2)CCN(CCC2CCC(NC(=O)/C=C/c4ccc(F)cc4)CC2)CC3)no1 (stereo unspecified)
Given back: inactive

Asked: Same thing, different compound: C[C@]12C=CC(=O)C=C1CC[C@@H]1[C@@H]2C(=O)C[C@@]2(C)[C@H]1CC[C@]2(O)C(=O)CO
Given back: inactive

Asked: Same thing, different compound: NCC1(Cc2noc(=O)[nH]2)CCCCC1
Given back: inactive

Asked: Same thing, different compound: COc1ccc(C)cc1N
Given back: inactive

Asked: Same thing, different compound: O=C(O)CCCCC(=O)O
Given back: inactive

Asked: Same thing, different compound: Oc1ccc2ccccc2c1N=Nc1ccccc1
Given back: inactive

Asked: Same thing, different compound: CC(C)c1ccc(C(=O)N=C(N)N)cc1S(C)(=O)=O
Given back: inactive

====

Read-out: Interleukin 6 (IL6), IL6 (gene 3569)
assay_procedure: LTEA_HepaRG_IL6: Life Technologies and Expression Analysis (LTEA) Assay for Interleukin 6 (IL6) using HepaRG (AID 2283509)
applied_conditions: mRNA level, 48 h; actives raise or lower the signal
Active and inactive are the calls of the source. How the source made its calls: active means hit-call score of the fitted dose curve at least 0.9, where 1 is the maximum; inactive means score below 0.9.
A correct response names exactly one class from T (active), F (inactive)

Use the examples below as a reference point.
- molecule: "O=[N+]([O-])C(CO)(CO)CO"
  category: "F"
- molecule: "CNCc1cc(F)ccc1Oc1ccc(Cl)c(Cl)c1"
  category: "T"
- molecule: "FC(F)(F)C(F)(F)C(F)(F)C(F)(F)C(F)(F)C(F)(F)CCI"
  category: "F"
- molecule: "CC1(C)CC(N=C=O)CC(C)(CN=C=O)C1 (stereo unspecified)"
  category: "F"
- molecule: "CCCCN(CCCC)CCCC"
  category: "F"

Okay, next one:
Asked: Hello, I am checking results. What call was entered for CCc1c(C(=O)NN2CCCCC2)nn(-c2ccc(Cl)cc2Cl)c1-c1ccc(Br)cc1 ?
Given back: T

====

Read-out: Macrophage colony-stimulating factor (MCSF), CSF1 (gene 1435)
assay_procedure: BSK_hDFCGF_MCSF: BioMAP Diversity Plus: hDFCGF Assay for Macrophage colony-stimulating factor (MCSF) Biomarker Activity (AID 2283060)
applied_conditions: primary human foreskin fibroblasts; actives raise or lower the signal
Description: BSK_hDFCGF is a cell-based, multiplexed-readout assay that uses foreskin fibroblast, a human skin primary cell, with measurements taken at 24 hours after chemical dosing in a 96-well plate.BSK_hDFCGF_MCSF is an assay component measured in the BSK_hDFCGF assay. It measures M-CSF antibody related to regulation of gene expression using ELISA technology.Data from the assay component BSK_hDFCGF_MCSF was analyzed into 1 assay endpoint. […]
Active and inactive are the calls of the source. How the source made its calls: active means hit-call score of the fitted dose curve at least 0.9, where 1 is the maximum; inactive means score below 0.9.
A correct response names exactly one class from active, inactive

- smiles_notation: "COc1cc(C=O)ccc1O"
  category: "inactive"

Okay, next one:
Asked: Hello, I am checking results. What call was entered for Cc1ccc(Cl)cc1 ?
Given back: inactive

====

assay_procedure: ATG_VDRE_CIS: Attagene CIS-FACTORIAL HepG2 Assay for human Vitamin D Receptor Element (VDRE) (AID 2282968)
applied_conditions: HepG2 VDRE cis-reporter transcription, actives raise or lower the signal
Activity calls are given as the source filed them. Rule for the calls: active = hit-call score of the fitted dose curve at least 0.9, where 1 is the maximum; inactive = score below 0.9.
measurement_name: AC50

Would you please look over these solved cases?
- smiles_notation: "Oc1ccc2c(c1)OC[C@@H](N1CCC(O)(c3ccc(F)cc3)CC1)[C@H]2O"
  AC50: "30.1 µM (active)"
- smiles_notation: "Nc1ccccc1N"
  AC50: "34.8 µM (active)"
- smiles_notation: "O=c1c(O)c(-c2ccc(O)c(O)c2)oc2cc(O)cc(O)c12"
  AC50: "inactive"
- smiles_notation: "CCCCCCCCCCO"
  AC50: "inactive"
- smiles_notation: "CN1CCCC1=O"
  AC50: "inactive"
- smiles_notation: "C[Si]1(C)O[Si](C)(C)O[Si](C)(C)O[Si](C)(C)O1"
  AC50: "inactive"

Asked: Field request: AC50 | item: Cc1cccc([N+](=O)[O-])c1C
Given back: inactive

Asked: Same thing, different molecule: O=c1[nH]cc(F)c(=O)[nH]1
Given back: inactive

Asked: Same thing, different molecule: CC(C)(C)c1cc(O)c(C(C)(C)C)cc1O
Given back: 32 µM (active)

====

assay_procedure: BSK_3C_SRB: Viability Assessment in the BioMAP Diversity Plus: 3C Assay (AID 2283023);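 note: cells read 24 h after compound dosing; fitted both ways against DMSO so a hit may be signal rise or drop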
applied_conditions: primary human endothelial cells (HUVEC)
Active and inactive are the calls of the source. Rule for the calls: active = hit-call score of the fitted dose curve at least 0.9, where 1 is the maximum; inactive = score below 0.9.
A correct response names exactly one class from active, inactive

- compound: "Nc1ccccc1N"
  category: "inactive"
- compound: "Cc1nc(-c2ccc3c(c2)CCN(CCC2CCC(NC(=O)/C=C/c4ccc(F)cc4)CC2)CC3)no1 (configuration not stated)"
  category: "active"
- compound: "Cc1ccc(C)c(O)c1C"
  category: "inactive"
- compound: "CCCCCCC(=O)OCC"
  category: "inactive"
- compound: "Nc1ccc(S(=O)(=O)c2ccc(N)cc2)cc1"
  category: "inactive"
- compound: "Nc1nc(N)c2nc(CNc3ccc(C(=O)N[C@@H](CCC(=O)O)C(=O)O)cc3)cnc2n1"
  category: "inactive"
- compound: "CCCCc1ccc2c(n1)[C@@H](c1ccc(OC)cc1C[C@H](C)C(=O)O)[C@H](C(=O)O)[C@H]2c1ccc2c(c1)OCO2"
  category: "inactive"
- compound: "OC[C@@H](O)[C@@H](O)[C@H](O)[C@H](O)CO"
  category: "inactive"

Asked: Hello, I am checking results. What call was entered for Cc1ccccc1Cl ?
Given back: inactive

Asked: Same thing, different compound: Cc1ccc(C(C)C)c(O)c1
Given back: inactive

Asked: Same thing, different compound: CCc1c(C(=O)NN2CCCCC2)nn(-c2ccc(Cl)cc2Cl)c1-c1ccc(Br)cc1
Given back: active

Asked: Same thing, different compound: CCCCCCCC=O
Given back: inactive

====

Read-out: UDP glucuronosyltransferase (UGT1A1), UGT1A1 (gene 54658)
assay_procedure: LTEA_HepaRG_UGT1A1: Life Technologies and Expression Analysis (LTEA) Assay for UDP glucuronosyltransferase (UGT1A1) using HepaRG (AID 2283538)
applied_conditions: mRNA level, 48 h; actives raise or lower the signal
Activity calls are given as the source filed them. Rule for the calls: active = hit-call score of the fitted dose curve at least 0.9, where 1 is the maximum; inactive = score below 0.9.
A correct response names exactly one class from active, inactive

- molecule: "Nc1nc(N)c2nc(CNc3ccc(C(=O)N[C@@H](CCC(=O)O)C(=O)O)cc3)cnc2n1"
  category: "inactive"
- molecule: "O=[N+]([O-])C(CO)(CO)CO"
  category: "inactive"
- molecule: "Nc1ccc(S(=O)(=O)c2ccc(N)cc2)cc1"
  category: "inactive"

Asked: Hello, I am checking results. What call was entered for Cc1cccc([N+](=O)[O-])c1C ?
Given back: inactive

Asked: Same thing, different molecule: C[Si]1(C)O[Si](C)(C)O[Si](C)(C)O[Si](C)(C)O1
Given back: inactive

Asked: Same thing, different molecule: C=CCOC(=O)c1ccccc1C(=O)OCC=C
Given back: inactive

Asked: Same thing, different molecule: CCCCCCOCCO
Given back: inactive

Asked: Same thing, different molecule: FC(F)(F)C(F)(F)C(F)(F)C(F)(F)C(F)(F)C(F)(F)CCI
Given back: inactive

Asked: Same thing, different molecule: COCCOC[C@H](CC1(C(=O)NC2CCC(C(=O)O)CC2)CCCC1)C(=O)Oc1ccc2c(c1)CCC2 (stereo partly drawn)
Given back: inactive

Asked: Same thing, different molecule: Cc1cccc(Nc2cc(Cl)nc(SCC(=O)O)n2)c1C
Given back: active

Asked: Same thing, different molecule: O=C(O)CCCCC(=O)O
Given back: inactive

Asked: Same thing, different molecule: Cc1cc(=O)[nH]c(=S)[nH]1
Given back: inactive

Asked: Same thing, different molecule: Cc1ccc(Cl)cc1
Given back: inactive
